B1: Transcriptional repressor p66-beta, residues 415 to 455; numbered along this chain, Q8WXI9 (parent)
chain: VEPFVCAQCRTDFTPHWKQEKNGKILCEQCMTSNQKKALKA

# Variants of: B1
# assay-method-text: abundance fitness (aPCA) (normalised: wild type 0, dead -1); higher = more abundant; growth selection in yeast, the domain comes from the species named
# condition-set: Homo sapiens
# abundance fitness per entry
// return a plain number; no unit text

Worked cases, answers included:
Q19D	0.212
T14V	0.144
D12S	0.117
W17K	0.387
F4C	0.659

Quote abundance fitness reported for "V1N" please.
-0.178

Quote abundance fitness reported for "T11M" please.
0.436

Reference source: the Human Domainome abundance scans (Beltran et al. 2025)
